Measured values drawn from patent US20170081368A1 for this set.

target: human Oxytocin (OTR) receptor (Homo sapiens, UniProt P30559); construct: expressed in transfected cells; assay: Calcium flux assay (FLIPR) in CHO cells expressing human OTR; format: cell-based; details: CHO; maximum response normalized to endogenous full agonist = 100%; read-out: hOT efficacy
Sequence (P30559 whole entry): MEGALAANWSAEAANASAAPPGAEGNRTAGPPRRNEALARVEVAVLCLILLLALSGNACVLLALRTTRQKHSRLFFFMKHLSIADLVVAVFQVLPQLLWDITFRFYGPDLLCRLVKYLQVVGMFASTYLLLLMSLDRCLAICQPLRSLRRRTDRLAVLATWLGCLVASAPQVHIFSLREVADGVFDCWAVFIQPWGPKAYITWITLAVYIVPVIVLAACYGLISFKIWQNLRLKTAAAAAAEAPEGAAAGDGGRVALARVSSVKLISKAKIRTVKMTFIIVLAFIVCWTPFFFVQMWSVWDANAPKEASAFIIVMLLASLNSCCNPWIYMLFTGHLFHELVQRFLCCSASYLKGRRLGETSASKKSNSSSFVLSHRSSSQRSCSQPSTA
Where a SMILES comes first, the peptide text is derived from it.
MEASURED_PARAMETER: Emax

## Input Determine its reported Emax: CC[C@H](C)[C@@H]1NC(=O)[C@H](Cc2ccc(O)cc2)NC(=O)CCS(=O)(=O)CC[C@@H](C(=O)N(C)CC(=O)N[C@@H](C)C(=O)NCC(N)=O)NC(=O)[C@H](CC(N)=O)NC(=O)[C@H](CCC(N)=O)NC1=O [Example 19] (HELM PEPTIDE1{Y.I.Q.N.[O=C([C@H](CCS(=O)(=O)CCC(=O)[*:3])N[*:1])[*:2]].[Sar].A.G.[am]}$PEPTIDE1,PEPTIDE1,1:R1-5:R3$$$V2.0)
## Output 110%

---

target: human Oxytocin (OTR) receptor (Homo sapiens, UniProt P30559); experiment: Calcium flux assay (FLIPR) in CHO cells expressing human OTR; conditions: agonist mode, CHO cells, calcium flux FLIPR; read-out: hOT EC50
*1 amine or outer side, *2 acyl side, *3 side chain or, on linkers, in order; H or OH if unused. Where a SMILES comes first, the peptide text is derived from it. Bridges are numbered along the chain shown (N, C = ends). [ ]: non-standard residue; d: D form. Hcy(O2-CH2CH2CO) = O=C([C@H](CCS(=O)(=O)CCC(=O)[*:3])N[*:1])[*:2]; Chg = N[C@H](C(=O)O)C1CCCCC1; NcPrGly = O=C(O)CNC1CC1
// values below are reported pEC50
Value format note: pEC50 is -log10 of concentration (mol/L); just state the number.

INSERT INTO measurements (molecule, experimental_system, measured_parameter, reported_result) VALUES
  ('CC[C@H](C)[C@@H]1NC(=O)[C@H](Cc2ccc(O)cc2)NC(=O)CCS(=O)(=O)CC[C@@H](C(=O)N(C)CC(=O)N[C@@H](CC(C)C)C(=O)NCC(N)=O)NC(=O)[C@H](CC(N)=O)NC(=O)[C@H](CCC(N)=O)NC1=O [Example 2] (HELM PEPTIDE1{Y.I.Q.N.[O=C([C@H](CCS(=O)(=O)CCC(=O)[*:3])N[*:1])[*:2]].[Sar].L.G.[am]}$PEPTIDE1,PEPTIDE1,1:R1-5:R3$$$V2.0)', 'human Oxytocin (OTR) receptor (Homo sapiens, UniProt P30559)', 'pEC50', 9.10),
  ('CC[C@H](C)[C@@H]1NC(=O)[C@H](Cc2ccc(O)cc2)NC(=O)CCS(=O)(=O)CC[C@@H](C(=O)N(CC(=O)N[C@H](C(=O)NCC(N)=O)C2CCCCC2)C2CC2)NC(=O)[C@H](CC(N)=O)NC(=O)[C@H](CCC(N)=O)NC1=O [Example 32] (YIQN[Hcy(O2-CH2CH2CO)][NcPrGly][Chg]G-NH2; lactam N-5)', 'human Oxytocin (OTR) receptor (Homo sapiens, UniProt P30559)', 'pEC50', 9.59);

Then this molecule:
## Input Determine its reported pEC50: CC[C@H](C)[C@@H]1NC(=O)[C@H](Cc2ccc(O)cc2)NC(=O)CCS(=O)(=O)CC[C@@H](C(=O)N(C)CC(=O)N[C@@H](Cc2ccc(O)cc2)C(=O)NCC(N)=O)NC(=O)[C@H](CC(N)=O)NC(=O)[C@H](CCC(N)=O)NC1=O [Example 17] (HELM PEPTIDE1{Y.I.Q.N.[O=C([C@H](CCS(=O)(=O)CCC(=O)[*:3])N[*:1])[*:2]].[Sar].Y.G.[am]}$PEPTIDE1,PEPTIDE1,1:R1-5:R3$$$V2.0)
## Output 8.66
